# Assay explanation: Pharmacokinetics of sonidegib in plasma
# Format: in vivo, human
# Test context: human, plasma, oral, 400 mg, T max, pharmacokinetic run-in (single dose), group 2, 400 mg, n = 12, median
Result type: Tmax (h)
Just the number in h, nothing appended.

Consider Cc1c(C(=O)Nc2ccc(N3C[C@@H](C)O[C@@H](C)C3)nc2)cccc1-c1ccc(OC(F)(F)F)cc1 [Sonidegib] . Its measured Tmax is 3

###

# Assay explanation: Pharmacokinetics of sonidegib in plasma
# Format: in vivo, human
# Test context: human, plasma, oral, 600 mg, T max, pharmacokinetic run-in (single dose), group 1, 600 mg, n = 9, median
Result type: Tmax

Value of measured Tmax for the entry `Cc1c(C(=O)Nc2ccc(N3C[C@@H](C)O[C@@H](C)C3)nc2)cccc1-c1ccc(OC(F)(F)F)cc1` : 2 h
